Recorded values, source patent US11479802B2.

- system tested: HSD17B11 (Homo sapiens)
- Construct: made in house
- Sequence (Q8NBQ5 20-300): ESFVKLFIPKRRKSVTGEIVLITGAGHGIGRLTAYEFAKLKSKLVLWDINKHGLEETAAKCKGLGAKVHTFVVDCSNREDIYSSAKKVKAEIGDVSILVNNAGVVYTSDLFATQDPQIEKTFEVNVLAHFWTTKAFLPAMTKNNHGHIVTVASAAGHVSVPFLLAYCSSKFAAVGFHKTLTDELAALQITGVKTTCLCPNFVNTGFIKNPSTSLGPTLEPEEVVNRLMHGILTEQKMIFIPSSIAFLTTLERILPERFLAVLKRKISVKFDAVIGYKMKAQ
- method description: Steroid substrate panel against HSD17B family member B11
- Type: biochemical
- cond: substrate at 50 μM; estradiol set as 100%
endpoint: Percent of Control (POC), B11 (%)
Reply with just the number (in %).

[in] # return recorded Percent of Control (POC), B11 for input C[C@]12CC[C@@H](O)C[C@@H]1CC[C@@H]1[C@@H]2[C@@H](O)C[C@@]2(C)[C@H]1CC[C@]2(O)C(=O)CO [5alpha-Tetrahydrocortisol]
[out] 0.0

[in] Please indicate Percent of Control (POC), B11 recorded for C[C@]12CCC(=O)C[C@@H]1CC[C@@H]1[C@@H]2CC[C@]2(C)[C@@H](O)CC[C@@H]12 [DHT, dihydroxy testosterone (DHT)]
[out] 12.7

[in] Recall and state the measured Percent of Control (POC), B11 for C[C@]12CC[C@@H]3c4ccc(O)cc4CC[C@H]3[C@@H]1CC[C@@H]2O [Estradiol] .
[out] 100

[in] Tell me Percent of Control (POC), B11 reported for C[C@]12CC[C@@H](O)C[C@@H]1CC[C@@H]1[C@@H]2C(=O)C[C@]2(C)C(=O)CC[C@@H]12 [11-oxo-androsterone]
[out] 0.0
